Reference source for all entries: PubChem BioAssay (NCI)

System: OVCAR-5 ovarian
Assay: NCI-60 one-dose screen, 48 h
Conditions: 10 µM unless noted
About 83,000 compounds went through this panel and 20% of them were active in at least one assay; those are over-represented in the sample as a whole. Active and inactive are the calls of the source. Rule for the calls: active = growth percent below 10; inactive = the rest.
Labels: y for active, n for inactive

INSERT INTO results (compound, category_label) VALUES
  ('Cc1ccc(C2CCCCC2)cc1Br', 'n'),
  ('CN(C)c1ccc2nc3ccc(=[N+](C)C)cc-3oc2c1', 'y'),
  ('Cc1[nH]n(-c2ccccc2)c(=O)c1C=NC(=S)C(N)=S', 'n'),
  ('O=S(=O)(O)c1cccnc1', 'n'),
  ('O=S(Cc1ccccc1)/C(=C/NC(=S)Nc1ccccc1)c1ccccc1 (stereo not given)', 'n'),
  ('COc1cc(C(=O)O)c(O)c(C(C)(C)C)c1', 'n'),
  ('N#CC1(O)CCCCC1', 'n'),
  ('Cc1ccc(C)c(CN(C)C)c1O', 'n'),
  ('CC(=O)NC(CCc1ccc(Cl)c(Cl)c1)c1cccc(O)c(=O)c1 (stereo not given)', 'n'),
  ('Nc1ccc(F)c(Cl)c1F', 'n');
